System: MS2 coat protein
METHOD: apparent Kd, MS2 coat protein; higher = weaker binding; RNA-MaP array
DETAILS: ligand present: flavin mononucleotide; designed as: OFF switch for flavin mononucleotide
List of apparent Kd values.
ASSAY_ENDPOINT: apparent Kd (nM)

GUUGAGGUGGUAGGAUAUAGUUUACACAUGAGGAUCACCCAUGUAUUCUAGACUUCAAGCCUCACCUAGAAGGACCCGUGCAAA: 4.75
AUGCACUCAGUCAGGAUAUGCAACUUAUAAUACAGGCAGAAGGGACAUGAGGAUCACCCAUGUGGCCGGUAAGA: 39.1
AAGGAGUUAGGAUAUCCGUGCGUUGACAUGAGGAUCACCCAUGUGUUGAUAAACCUACUAGGAGAAGGAACGAUAC: 15.2
CAAGAGUUAGAAGGAUAUACAAGAUGCUGAAAGAAACGUGAACAAAACAUGAGGAUCACCCAUGUGAAGAAGGUCAAAUAGAAA: 9.21
UAGUCGUGGGCAGGAUAUCACUUUAUGCCAAUAUGAGAAGGGCCGGUGACAAGGCGGGCGACCACAUGAGGAUCACCCAUGUAC: 47.9
AUGGUGGCUUCAGGAUAUCGCAAGUUAAUACGUCCCACAUGAGGAUCACCCAUGUAACGGUGGGUCGAGAAGGGAACCAUCCCG: 63.5
UAUCUACUAUGAGGAUAUCGACAAUGGAUGAACAUGAGGAUCACCCAUGUAACUCAUGGUCCCUUCGAGAAGGCAUGCUAUAAC: 59.5
GACAUCCUCACAAUACAUGAGGAUCACCCAUGUGAAGUGGCCUAGGAUAUUCAAGAGUGGGUCACGAAGAAGGAGGCUGCAGGA: 28.3
GGUUGACAUGAGGAUCACCCAUGUGAGGAUAUAACAAGUGGGAGCUCUCCAUGAAAAGUUAGAAGGCACUUGGU: 52.9
